The reported measurements were obtained from patent US10100027B2.

method: Cytotoxicity in HCV replicon cells (Cell Titer-fluor)
Type: cell-based
Procedure: The EC50 and CC50 values of anti-HCV compounds were determined by HCV genotype 1a (HCV-1a) and 1b (HCV-1b) stable transfected replication (replicon) cells. The source of genotype 1a replicon is H77 clones containing K1691R, K2040R and S2204I adaptive mutations. […] 5) Adding fluorescence substrate Cell Titer-fluor to the cell well, after incubation for 30 minutes, detecting the signal by microplate reader Envison (Ex at 405 nm and read at 515 nm). […]
For each record, write down the corresponding CC50 at 3 days.

Fill blank: measured CC50 at 3 days of the molecule `O=C(c1oc2c(C(F)(F)F)cc(C3CC3)cc2c1Cl)N1CCC(C(=O)N2CCC2)CC1` is ____.
> 3 µM

Fill blank: measured CC50 at 3 days of the molecule O=C(c1oc2c(C(F)(F)F)cc(C3CC3)cc2c1Cl)N1CCC(C(=O)N2CC3CC3C2)CC1 (stereo not drawn) is ____.
> 3 µM

Fill blank: measured CC50 at 3 days of the molecule `Cc1nnc(C23CCC(NC(=O)c4oc5c(C(F)(F)F)cc(C6CC6)cc5c4Cl)(CC2)CC3)o1` is ____.
> 3 µM
